# target_under_test: furin, P09958;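 also: purified furin at 1:10 enzyme:substrate in 50 mM HEPES pH 7.5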
# Sequence (P09958 whole entry): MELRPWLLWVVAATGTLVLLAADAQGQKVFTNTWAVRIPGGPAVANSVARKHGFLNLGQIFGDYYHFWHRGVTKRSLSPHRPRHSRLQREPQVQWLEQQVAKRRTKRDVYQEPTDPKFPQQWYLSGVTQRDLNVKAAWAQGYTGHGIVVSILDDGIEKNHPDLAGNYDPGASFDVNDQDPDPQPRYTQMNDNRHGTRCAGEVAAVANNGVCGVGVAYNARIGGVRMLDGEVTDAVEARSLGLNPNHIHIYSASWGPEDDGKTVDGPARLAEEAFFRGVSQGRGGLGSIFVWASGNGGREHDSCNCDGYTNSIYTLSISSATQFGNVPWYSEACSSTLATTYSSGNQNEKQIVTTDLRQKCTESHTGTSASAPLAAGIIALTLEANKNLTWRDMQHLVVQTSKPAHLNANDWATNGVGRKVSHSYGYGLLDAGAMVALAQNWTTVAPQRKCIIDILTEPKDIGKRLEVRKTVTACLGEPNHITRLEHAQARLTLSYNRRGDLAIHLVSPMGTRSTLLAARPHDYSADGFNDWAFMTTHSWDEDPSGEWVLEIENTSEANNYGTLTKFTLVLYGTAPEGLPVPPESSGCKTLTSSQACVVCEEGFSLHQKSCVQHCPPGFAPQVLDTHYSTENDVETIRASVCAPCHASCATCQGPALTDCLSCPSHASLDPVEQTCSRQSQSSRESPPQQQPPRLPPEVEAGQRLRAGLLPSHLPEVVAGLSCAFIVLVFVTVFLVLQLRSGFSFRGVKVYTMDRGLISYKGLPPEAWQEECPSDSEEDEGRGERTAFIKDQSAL
# assay_notes: furin cleavage Z-score vs untreated control; higher = more cleavage, active = 3.5 or more, inactive = 1 or less, 8 variable residues between constant flanks
# condition_set: 7.5 min
The other results are listed elsewhere or left out. The true hit rate is not given.
Outcome field: choose from true for active, false for inactive

Q: For this sequence, state the assay outcome: CAFWEGVFTGAGNASASA [HC939]
A: false

Q: For this sequence, state the assay outcome: CAVGERFRRDAGNASASA [FS-386]
A: true

Q: For this sequence, state the assay outcome: CAFREVPCHRAGNASASA [HC2427]
A: false

Q: For this sequence, state the assay outcome: CAYKRYISWCAGNASASA [HC578]
A: false

Q: For this sequence, state the assay outcome: CAYVCCSMSYAGNASASA [HC1989]
A: false

Q: For this sequence, state the assay outcome: CAAVEVDGAGAGNASASA [CS7]
A: false

All figures here come from the supplement of paper PMC3545927.
